# Experiment Summary: Stability of analytes in cell lysates (LC–MS/MS method validation)
# Type: physicochemical
# Experimental Setup: 4 ℃, 24 h at autosampler, high QC level, n=3

# Molecule, Post-preparation stability RE%, %
data = [
    ("COc1cc2c(cc1OC)-c1c(C)c3ccc(OC)c(OC)c3c[n+]1CC2 [DHC, dehydrocorydaline]", 6.6),
    ("CC(=O)O[C@@H]1C[C@H](O)[C@@]23CO[C@@H](O)[C@]1(C)[C@@H]2C[C@@H](O)[C@]1(C)[C@@H]3C(=O)[C@H](OC(C)=O)[C@@]2(C)[C@H](c3ccoc3)C[C@H]3O[C@]321", 0.1),
    ("COc1ccc2cc3[n+](cc2c1OC)CCc1cc2c(cc1-3)OCO2", 3.1),
    ("COc1cc2c(cc1O)CC[n+]1cc3c(OC)c(OC)ccc3cc1-2", 4.7),
    ("c1cc2c(c3c1CC1c4cc5c(cc4CCN1C3)OCO5)OCO2 (stereo not shown) [THC, tetrahydrocoptisine]", -0.9),
    ("COc1cc2c(cc1OC)-c1cc3ccc(OC)c(OC)c3c[n+]1CC2", 6.8),
    ("c1c2c(cc3c1OCO3)-c1cc3ccc4c(c3c[n+]1CC2)OCO4", 6.8),
]

---

# Experiment Summary: Stability of analytes in cell lysates (LC–MS/MS method validation)
# Assay type: physicochemical
# Experimental Setup: 4 ℃, 24 h at autosampler, low QC level, n=3
Entries and their Post-preparation stability RE% values follow.
Recorded Metric: Post-preparation stability RE% (%)

# Compound, Value
data = [
    ("COc1ccc2cc3[n+](cc2c1OC)CCc1cc2c(cc1-3)OCO2 [BER, berberine]", 1.8),
    ("CC(=O)O[C@@H]1C[C@H](O)[C@@]23CO[C@@H](O)[C@]1(C)[C@@H]2C[C@@H](O)[C@]1(C)[C@@H]3C(=O)[C@H](OC(C)=O)[C@@]2(C)[C@H](c3ccoc3)C[C@H]3O[C@]321 [TSN, toosendanin]", 7.6),
    ("c1c2c(cc3c1OCO3)-c1cc3ccc4c(c3c[n+]1CC2)OCO4 [COP, coptisine]", -0.6),
    ("COc1cc2c(cc1OC)-c1cc3ccc(OC)c(OC)c3c[n+]1CC2 [PAL, palmatine]", -1.3),
    ("c1cc2c(c3c1CC1c4cc5c(cc4CCN1C3)OCO5)OCO2 (stereo not shown) [THC, tetrahydrocoptisine]", -0.6),
    ("COc1cc2c(cc1O)CC[n+]1cc3c(OC)c(OC)ccc3cc1-2 [JAT, jatrorrhizine]", -0.2),
    ("COc1cc2c(cc1OC)-c1c(C)c3ccc(OC)c(OC)c3c[n+]1CC2 [DHC, dehydrocorydaline]", -0.2),
]

---

# Experiment Summary: Stability of analytes in cell lysates (LC–MS/MS method validation)
# Format: physicochemical
# Experimental Setup: -80℃ for a month, low QC level, n=3
Recorded Metric: Long-term stability RE% (%)

# Molecule, Value
measured = [
    ("COc1ccc2cc3[n+](cc2c1OC)CCc1cc2c(cc1-3)OCO2 [BER, berberine]", 1.8),
    ("c1cc2c(c3c1CC1c4cc5c(cc4CCN1C3)OCO5)OCO2 (stereo not shown) [THC, tetrahydrocoptisine]", 5.3),
    ("COc1cc2c(cc1OC)-c1cc3ccc(OC)c(OC)c3c[n+]1CC2 [PAL, palmatine]", 6.4),
    ("COc1cc2c(cc1O)CC[n+]1cc3c(OC)c(OC)ccc3cc1-2 [JAT, jatrorrhizine]", 1.9),
]
